For each of the molecules below, state its Kd.
# measurement target: XIAP-BIR3 (Homo sapiens)
# Construct: 40 nM of XIAP-BIR3 for 15 min at RT
# Sequence (P98170 241-356 limits assumed): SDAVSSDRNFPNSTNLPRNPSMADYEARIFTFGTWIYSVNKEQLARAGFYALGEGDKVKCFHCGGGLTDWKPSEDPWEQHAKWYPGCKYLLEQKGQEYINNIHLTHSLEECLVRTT
# measurement protocol: XIAP BIR-3 fluorescence polarization binding assay
# measurement setup: 5 nM AbuRPF-K(5-Fam)-NH2, 40 nM XIAP-BIR3, 15 min RT, pH 7.5; read-out: KD Range

Tested on XIAP-BIR3 (Homo sapiens), the item CC(N)C(=O)NC(C(=O)N1CCCC1Cc1c(-c2ccc(-c3oc4ccccc4c3CC3CCCN3C(=O)C(NC(=O)C(C)N)C(C)C)cc2)oc2ccccc12)C(C)C (single isomer, unassigned) [Entry 61] showed Kd equal to > 10000 nM

Tested on XIAP-BIR3 (Homo sapiens), the item CNC(C)C(=O)NC1CC=CCC(NC(=O)C(C)NC)C(=O)N2CCCC2Cc2c3n(c4cc(F)ccc24)CCn2c-3c(c3ccc(F)cc32)CC2CCCN2C1=O (stereo not shown) showed Kd equal to < 100 nM

Tested on XIAP-BIR3 (Homo sapiens), the item CNC(C)C(=O)NC(C(=O)N1CCCC1Cc1c(-c2ccc(-c3c(CC4CCCN4C(=O)C(NC(=O)C(C)NC)C(C)(C)C)c4ccc(F)cc4n3CCO)cc2)n(CCO)c2cc(F)ccc12)C(C)(C)C (single isomer, unassigned) [Entry 60] showed Kd equal to 1000 to 10000 nM

Tested on XIAP-BIR3 (Homo sapiens), the item `CN[C@@H](C)C(=O)N[C@H](C(=O)N1CCC[C@H]1Cc1c(-c2ccc(-c3oc4ccccc4c3C[C@@H]3CCCN3C(=O)[C@@H](NC(=O)[C@H](C)NC)C(C)(C)C)cc2)oc2ccccc12)C(C)(C)C` showed Kd equal to < 100 nM

Tested on XIAP-BIR3 (Homo sapiens), the item `CC[C@H](N)C(=O)N[C@H](C(=O)N1CCC[C@H]1Cc1c(-c2ccc(-c3oc4ccccc4c3C[C@@H]3CCCN3C(=O)[C@@H](NC(=O)[C@@H](N)CC)C3CCCCC3)cc2)oc2ccccc12)C1CCCCC1` showed Kd equal to 100 to 1000 nM

Tested on XIAP-BIR3 (Homo sapiens), the item `CN[C@@H](C)C(=O)N[C@H](C(=O)N1CCC[C@H]1Cc1c(-c2ccc(-c3c(C[C@@H]4CCCN4C(=O)[C@@H](NC(=O)[C@H](C)NC)[C@@H](C)O)c4cc(F)ccc4n3CCO)cc2)n(CCO)c2ccc(F)cc12)[C@@H](C)O` showed Kd equal to < 100 nM

Tested on XIAP-BIR3 (Homo sapiens), the item CC(N)C(=O)NC(C(=O)N1CCCC1Cc1c(-c2ccc(-c3oc4ccccc4c3CC3CCCN3C(=O)C(NC(=O)C(C)N)C(C)C)cc2)oc2ccccc12)C(C)C (single isomer, unassigned) [Entry 1] showed Kd equal to < 100 nM

Tested on XIAP-BIR3 (Homo sapiens), the item `CC[C@H](N)C(=O)N[C@H](C(=O)N1CCC[C@H]1Cc1c(-c2ccc(-c3oc4ccccc4c3C[C@@H]3CCCN3C(=O)[C@@H](NC(=O)[C@@H](N)CC)C(C)(C)C)cc2)oc2ccccc12)C(C)(C)C` showed Kd equal to 100 to 1000 nM

Tested on XIAP-BIR3 (Homo sapiens), the item `CN[C@@H](C)C(=O)N[C@H](C(=O)N1CCC[C@H]1Cc1cn(CC#CC#CCn2cc(C[C@@H]3CCCN3C(=O)[C@@H](NC(=O)[C@H](C)NC)C3CCCCC3)c3ccccc32)c2ccccc12)C1CCCCC1` showed Kd equal to < 100 nM

Tested on XIAP-BIR3 (Homo sapiens), the item `CN[C@@H](C)C(=O)N[C@H](C(=O)N1CCC[C@H]1Cc1c(-c2ccc(-c3[nH]c4cc(F)ccc4c3C[C@@H]3CCCN3C(=O)[C@@H](NC(=O)[C@H](C)NC)C(C)C)cc2)[nH]c2cc(F)ccc12)C(C)C` showed Kd equal to < 100 nM

Tested on XIAP-BIR3 (Homo sapiens), the item `COCCn1c(-c2ccc(-c3c(C[C@@H]4CCCN4C(=O)[C@@H](NC(=O)[C@H](C)N)C(C)C)c4ccc(F)cc4n3CCOC)cc2)c(C[C@@H]2CCCN2C(=O)[C@@H](NC(=O)[C@H](C)N)C(C)C)c2ccc(F)cc21` showed Kd equal to < 100 nM

Tested on XIAP-BIR3 (Homo sapiens), the item CN[C@@H](C)C(=O)N[C@H](C(=O)N1CCC[C@H]1Cc1c(-c2ccc(-c3[nH]c4cc(F)ccc4c3C[C@@H]3CCCN3C(=O)[C@@H](NC(=O)[C@H](C)NC)[C@@H](C)OCc3ccccc3)cc2)[nH]c2cc(F)ccc12)[C@@H](C)O [Entry 26] showed Kd equal to < 100 nM

Tested on XIAP-BIR3 (Homo sapiens), the item `CC[C@H](N)C(=O)N[C@H](C(=O)N1CCC[C@H]1Cc1c(-c2ccc(-c3oc4ccccc4c3C[C@@H]3CCCN3C(=O)[C@@H](NC(=O)[C@@H](N)CC)C(C)C)cc2)oc2ccccc12)C(C)C` showed Kd equal to < 100 nM
